- tgt: SARS-CoV-2 spike protein on live SARS-CoV-2 virus (SARS-CoV-2, UniProt P0DTC2 14-1273)
- experimental_protocol: cell-based or functional assay
endpoint: IC50, live SARS-CoV-2 미세중화분석, Vero 세포, 72시간 (nM)

binder="SA4079 (antibody, V domains shown) VH: QMQLVESGGGVVQPGGSLRLSCAASGFTFDDHTMHWVRQAPGKGLEWVSLISWDGGSTYYADSVKGRFTISRDNSKNSLYLQMNSLRAEDTAVYYCTRDASRRPGDGGYDFDVWGQGTQVTVSS VL: QAVVTQEPSLTVSPGGTATLTCGSSTGTVTRGHWPYWFQQKPGQAPRTLIYDTDTKHSWTPARFSGSLLGGKAALTLSGAQPEDEADYYCLLSYSDSRVFGTGTKVTVL" observed_result=2.74
binder="SA4118 (antibody, V domains shown) VH: QVQLVESGAEVKKPGASVRVSCKISGYIFTELSIHWVRQAPGKGLEWMGGFDPEEGKTIYAQKFQGRVTMTEDTSTDTAYMELSSLRSEDTAVYYCAKIGHLGDFWYWGQGTLITVSS VL: QSALTQPASVSGSPGQSITISCTGTTSDIGSYDYVSWYQQHPGKAPKLIIYGVTRRPSGVSNRFSGSKSGNTASLTISGLQAEDEANYYCSSCTRSSTYVFGTGTKVTVL" observed_result=8.29
binder="SA4086 (antibody, V domains shown) VH: QVQLVESGGGVVQPGRSLRLSCAASGFTFSSYAMHWVRQAPGKGLEWVAVISYDGSNKYYADSAKGRFTISRDNSKNTLYLQMNSLRAEDTAVYYCARRGHYYDSSGYLYWGHGTLITVSS VL: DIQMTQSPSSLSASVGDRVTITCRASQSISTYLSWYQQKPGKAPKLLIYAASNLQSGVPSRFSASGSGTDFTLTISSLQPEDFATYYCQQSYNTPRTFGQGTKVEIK" observed_result=12.4
